Ref: PubChem BioAssay AID2060511

test system: 422866-222-R5-J1-PDC spheroids with HUVEC/MSC, viability; test: Anticancer human tumor 422866-222-R5-J1-PDC patient-derived pancreatic adenocarcinoma cell line growth inhibition [GQUAD]; conditions: curve of first compound; second compound 3.16 µM
molecules and their reported pIC50
pIC50 (log units): -log10 of the concentration in mol/L.

Any idea what its pIC50 is? The molecule is C#Cc1c(F)ccc2cc(O)cc(-c3ncc4c(N5CC6CCC(C5)N6)nc(OCC56CCCN5CC(F)C6)nc4c3F)c12 (stereo not given) + Cc1cnc(CNC(=O)c2c(=O)c3ccc(N4CCCN(C)CC4)nc3n3c2sc2ccccc23)cn1 5.63

Moving on to COc1ccc([C@@H](O)c2cc(-c3ncnc4cc(N5CCOCC5)ccc34)c(F)cc2Cl)nn1 + Cc1cnc(CNC(=O)c2c(=O)c3ccc(N4CCCN(C)CC4)nc3n3c2sc2ccccc23)cn1 5.71

* * *

tested on: 422866-222-R5-J1-PDC spheroids with HUVEC/MSC, viability; assay: Anticancer human tumor 422866-222-R5-J1-PDC cell line growth inhibition [GQUAD]; details: second compound 0.0316 µM; first compound 0.316 µM; stronger effect = lower value;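 also: spheroids exposed to compounds for seven days before reading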;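 as to viability, T/C: percent viability relative to DMSO vehicle control taken as 100%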
assay metric: viability, T/C (%)
Output spec: scalar in %, unitless text.

- compound: "CC1COCCN1c1cc(C2(S(C)(=N)=O)CC2)nc(-c2ccnc3[nH]ccc23)n1 (stereo not drawn) + Cc1[nH]c2ccc(F)cc2c1-c1nc2c3cccnc3c3ncccc3c2[nH]1"
  viability, T/C [%]: 90.2

Requested read-out viability, T/C, target or system 422866-222-R5-J1-PDC spheroids with HUVEC/MSC, viability, entry COc1ncnc(C2CC2)c1-c1ncc2cnn(Cc3ccc(-c4nc(C(F)(F)F)cn4C(C)C)cc3)c2n1 + Cc1[nH]c2ccc(F)cc2c1-c1nc2c3cccnc3c3ncccc3c2[nH]1 111

Moving on to COc1cccc2c1C(=O)c1c(O)c3c(c(O)c1C2=O)CC(O)(C(=O)CO)CC3OC1CC(N)C(O)C(C)O1 (stereo not drawn) + CN(C)c1ccc(Nc2c3ccc(NC(=O)CCN4CCCC4)cc3nc3cc(NC(=O)CCN4CCCC4)ccc23)cc1 64.3

* * *

system: 422866-222-R5-J1-PDC spheroids with HUVEC/MSC, viability; assay: Anticancer human tumor 422866-222-R5-J1-PDC cell line growth inhibition [GQUAD]; conditions: second compound 1 µM; first compound 0.00999 µM; stronger effect = lower value;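 also: spheroids exposed to compounds for seven days before reading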;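 as to viability, T/C: percent viability relative to DMSO vehicle control taken as 100%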
assay metric: viability, T/C (%)
Output spec: scalar in %, unitless text.

- compound: "Cn1ncnc1[C@H]1c2n[nH]c(=O)c3cc(F)cc(c23)N[C@@H]1c1ccc(F)cc1 + Cc1[nH]c2ccc(F)cc2c1-c1nc2c3cccnc3c3ncccc3c2[nH]1"
  unit spec: "%"
  viability, T/C: 104
- compound: "CCc1c2c(nc3ccc(O)cc13)-c1cc3c(c(=O)n1C2)COC(=O)[C@]3(O)CC + CN(C)c1ccc(Nc2c3ccc(NC(=O)CCN4CCCC4)cc3nc3cc(NC(=O)CCN4CCCC4)ccc23)cc1"
  unit spec: "%"
  viability, T/C: 45.2

Field: next compound
Any idea what its viability, T/C is? The compound is Cn1ncnc1[C@H]1c2n[nH]c(=O)c3cc(F)cc(c23)N[C@@H]1c1ccc(F)cc1 + CN(C)c1ccc(Nc2c3ccc(NC(=O)CCN4CCCC4)cc3nc3cc(NC(=O)CCN4CCCC4)ccc23)cc1 75.9

* * *

system: 422866-222-R5-J1-PDC spheroids with HUVEC/MSC, viability; assay: Anticancer human tumor 422866-222-R5-J1-PDC cell line growth inhibition [GQUAD]; conditions: second compound 0.1 µM; first compound 0.316 µM; stronger effect = lower value;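 also: spheroids exposed to compounds for seven days before reading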;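 as to viability, T/C: percent viability relative to DMSO vehicle control taken as 100%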
assay metric: viability, T/C (%)
Output spec: scalar in %, unitless text.

- compound: "Cn1ncnc1[C@H]1c2n[nH]c(=O)c3cc(F)cc(c23)N[C@@H]1c1ccc(F)cc1 + Cc1[nH]c2ccc(F)cc2c1-c1nc2c3cccnc3c3ncccc3c2[nH]1"
  target desc: "422866-222-R5-J1-PDC spheroids with HUVEC/MSC, viability"
  unit spec: "%"
  viability, T/C: 86.8

Any idea what its viability, T/C is? The compound is CC(=O)O[C@H]1C(=O)[C@@]2(C)[C@H]([C@H](OC(=O)c3ccccc3)[C@]3(O)C[C@H](OC(=O)[C@H](O)[C@@H](NC(=O)c4ccccc4)c4ccccc4)C(C)=C1C3(C)C)[C@]1(OC(C)=O)CO[C@@H]1C[C@@H]2O + CN(C)c1ccc(Nc2c3ccc(NC(=O)CCN4CCCC4)cc3nc3cc(NC(=O)CCN4CCCC4)ccc23)cc1 65.1

* * *

tested on: 422866-222-R5-J1-PDC spheroids with HUVEC/MSC, viability; assay: Anticancer human tumor 422866-222-R5-J1-PDC cell line growth inhibition [GQUAD]; details: second compound 10 µM; first compound 10 µM; stronger effect = lower value;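 also: spheroids exposed to compounds for seven days before reading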;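 as to viability, T/C: percent viability relative to DMSO vehicle control taken as 100%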
molecules and their reported viability, T/C

Some solved entries appear below for comparison.
- molecule: "Cc1cccc(N(C)C(=O)C2C(O)CCN2c2nc(C)cc(C(F)(F)F)c2C#N)c1 (stereo not given) + CN(C)c1ccc(Nc2c3ccc(NC(=O)CCN4CCCC4)cc3nc3cc(NC(=O)CCN4CCCC4)ccc23)cc1"
  obs value: "85%"
- molecule: "CCCS(=O)(=O)Nc1ccc(F)c(C(=O)c2c[nH]c3ncc(-c4ccc(Cl)cc4)cc23)c1F + Cc1[nH]c2ccc(F)cc2c1-c1nc2c3cccnc3c3ncccc3c2[nH]1"
  obs value: "49.9%"
- molecule: "COc1cccc2c1C(=O)c1c(O)c3c(c(O)c1C2=O)CC(O)(C(=O)CO)CC3OC1CC(N)C(O)C(C)O1 (stereo not given) + Cc1[nH]c2ccc(F)cc2c1-c1nc2c3cccnc3c3ncccc3c2[nH]1"
  obs value: "30.4%"
- molecule: "CC1COCCN1c1cc(C2(S(C)(=N)=O)CC2)nc(-c2ccnc3[nH]ccc23)n1 (stereo not given) + Cc1[nH]c2ccc(F)cc2c1-c1nc2c3cccnc3c3ncccc3c2[nH]1"
  obs value: "54.3%"

Field: next molecule
Requested read-out viability, T/C, target or system 422866-222-R5-J1-PDC spheroids with HUVEC/MSC, viability, entry CC1COCCN1c1cc(-c2ccnn2C)c2ccnc(-c3ccn[nH]3)c2n1 (stereo not given) + Cc1cnc(CNC(=O)c2c(=O)c3ccc(N4CCCN(C)CC4)nc3n3c2sc2ccccc23)cn1 53.1%

* * *

system: 422866-222-R5-J1-PDC spheroids with HUVEC/MSC, viability; assay: Anticancer human tumor 422866-222-R5-J1-PDC cell line growth inhibition [GQUAD]; details: curve of first compound; second compound 0.0316 µM;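 also: spheroids exposed to compounds for seven days before reading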
assay metric: IC50

- compound: "C=CCn1c(=O)c2cnc(Nc3ccc(N4CCN(C)CC4)cc3)nc2n1-c1cccc(C(C)(C)O)n1 + Cc1[nH]c2ccc(F)cc2c1-c1nc2c3cccnc3c3ncccc3c2[nH]1"
  IC50: "> 10 µM"
- compound: "Cc1cccc(N(C)C(=O)C2C(O)CCN2c2nc(C)cc(C(F)(F)F)c2C#N)c1 (stereo not given) + Cc1[nH]c2ccc(F)cc2c1-c1nc2c3cccnc3c3ncccc3c2[nH]1"
  IC50: "> 10 µM"
- compound: "CC(=O)O[C@H]1C(=O)[C@@]2(C)[C@H]([C@H](OC(=O)c3ccccc3)[C@]3(O)C[C@H](OC(=O)[C@H](O)[C@@H](NC(=O)c4ccccc4)c4ccccc4)C(C)=C1C3(C)C)[C@]1(OC(C)=O)CO[C@@H]1C[C@@H]2O + Cc1cnc(CNC(=O)c2c(=O)c3ccc(N4CCCN(C)CC4)nc3n3c2sc2ccccc23)cn1"
  IC50: "> 10 µM"

Requested read-out IC50, target or system 422866-222-R5-J1-PDC spheroids with HUVEC/MSC, viability, entry Cn1ncnc1[C@H]1c2n[nH]c(=O)c3cc(F)cc(c23)N[C@@H]1c1ccc(F)cc1 + CN(C)c1ccc(Nc2c3ccc(NC(=O)CCN4CCCC4)cc3nc3cc(NC(=O)CCN4CCCC4)ccc23)cc1 > 0.316 µM

Moving on to COc1cc(C2c3cc4c(cc3C(OC3OC5COC(C)OC5C(O)C3O)C3COC(=O)C23)OCO4)cc(OC)c1O (stereo not given) + CN(C)c1ccc(Nc2c3ccc(NC(=O)CCN4CCCC4)cc3nc3cc(NC(=O)CCN4CCCC4)ccc23)cc1 1.89 µM

* * *

system: 422866-222-R5-J1-PDC spheroids with HUVEC/MSC, viability; assay: Anticancer human tumor 422866-222-R5-J1-PDC cell line growth inhibition [GQUAD]; conditions: second compound 3.16 µM; first compound 0.0999 µM; stronger effect = lower value;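 also: spheroids exposed to compounds for seven days before reading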;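 as to viability, T/C: percent viability relative to DMSO vehicle control taken as 100%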
compounds and their reported viability, T/C
Output spec: scalar in %, unitless text.

Some solved entries appear below for comparison.
- compound: "CCc1c2c(nc3ccc(O)cc13)-c1cc3c(c(=O)n1C2)COC(=O)[C@]3(O)CC + Cc1cnc(CNC(=O)c2c(=O)c3ccc(N4CCCN(C)CC4)nc3n3c2sc2ccccc23)cn1"
  unit spec: "%"
  viability, T/C: 46.5
- compound: "Cn1ncnc1[C@H]1c2n[nH]c(=O)c3cc(F)cc(c23)N[C@@H]1c1ccc(F)cc1 + CN(C)c1ccc(Nc2c3ccc(NC(=O)CCN4CCCC4)cc3nc3cc(NC(=O)CCN4CCCC4)ccc23)cc1"
  unit spec: "%"
  viability, T/C: 80.1
- compound: "Cc1[nH]c2ccccc2c1CCNCc1ccc(/C=C/C(=O)NO)cc1 + Cc1cnc(CNC(=O)c2c(=O)c3ccc(N4CCCN(C)CC4)nc3n3c2sc2ccccc23)cn1"
  unit spec: "%"
  viability, T/C: 76.1

Any idea what its viability, T/C is? The compound is Cc1[nH]c2ccccc2c1CCNCc1ccc(/C=C/C(=O)NO)cc1 + Cc1[nH]c2ccc(F)cc2c1-c1nc2c3cccnc3c3ncccc3c2[nH]1 75.2

Moving on to CC[C@@]1(O)C(=O)OCc2c1cc1n(c2=O)Cc2cc3c(CN(C)C)c(O)ccc3nc2-1 + Cc1cnc(CNC(=O)c2c(=O)c3ccc(N4CCCN(C)CC4)nc3n3c2sc2ccccc23)cn1 90.9
